assay: PK of compound of Formula (Ia) after single subcutaneous dose of solution formulations in beagle dogs; type: in vivo; conditions: male, beagle, dog, plasma, sc, 12 mg/kg, beagle dogs, SC 12 mg/kg, 400 mg/mL solution W (5.00% ethanol, 1.57% poloxamer 188), 4368 h, Mean n = 3
Property Label: concentration at 4368 h (nM)
Answer in nM, number only, no unit symbol.

[Q] What does the data say about its concentration at 4368 h? Entry: CC(C)(C#Cc1ccc(-c2ccc(Cl)c3c(NS(C)(=O)=O)nn(CC(F)(F)F)c23)c([C@H](Cc2cc(F)cc(F)c2)NC(=O)Cn2nc(C(F)(F)F)c3c2C(F)(F)[C@@H]2C[C@H]32)n1)S(C)(=O)=O
[A] 5.7

---

assay: PK of compound of Formula (Ia) after single subcutaneous dose of solution formulations in Wistar Han rats; assay type: in vivo; conditions: male, Wistar Han, rat, plasma, sc, 50 mg/kg, 1344 h; mean, n = 3 rats; SC 50 mg/kg; solution V, 300 mg/mL
Property Label: concentration at 1344 h (µM)
Answer in µM, number only, no unit symbol.

[Q] What does the data say about its concentration at 1344 h? Entry: CC(C)(C#Cc1ccc(-c2ccc(Cl)c3c(NS(C)(=O)=O)nn(CC(F)(F)F)c23)c([C@H](Cc2cc(F)cc(F)c2)NC(=O)Cn2nc(C(F)(F)F)c3c2C(F)(F)[C@@H]2C[C@H]32)n1)S(C)(=O)=O [compound of Formula (Ia)]
[A] 0.301

---

test: PK of compound of Formula (Ia) after single subcutaneous dose of solution formulations in beagle dogs; assay type: in vivo; details: male, beagle, dog, plasma, sc, 12 mg/kg, 336 h; mean, n = 3 dogs; SC 12 mg/kg; solution T, 400 mg/mL
Property Label: concentration at 336 h (nM)
Answer in nM, number only, no unit symbol.

[Q] What does the data say about its concentration at 336 h? Entry: CC(C)(C#Cc1ccc(-c2ccc(Cl)c3c(NS(C)(=O)=O)nn(CC(F)(F)F)c23)c([C@H](Cc2cc(F)cc(F)c2)NC(=O)Cn2nc(C(F)(F)F)c3c2C(F)(F)[C@@H]2C[C@H]32)n1)S(C)(=O)=O
[A] 261

---

assay: PK of compound of Formula (Ia) after single subcutaneous dose of solution formulations in beagle dogs; type: in vivo; conditions: male, beagle, dog, plasma, sc, 12 mg/kg, beagle dogs, SC 12 mg/kg, 400 mg/mL solution Z (3.13% poloxamer 188), 8.00 h, Mean n = 3
Property Label: concentration at 8 h (nM)
Answer in nM, number only, no unit symbol.

[Q] What does the data say about its concentration at 8 h? Entry: CC(C)(C#Cc1ccc(-c2ccc(Cl)c3c(NS(C)(=O)=O)nn(CC(F)(F)F)c23)c([C@H](Cc2cc(F)cc(F)c2)NC(=O)Cn2nc(C(F)(F)F)c3c2C(F)(F)[C@@H]2C[C@H]32)n1)S(C)(=O)=O
[A] 34

---

assay: PK of compound of Formula (Ia) after single subcutaneous dose of solution formulations in beagle dogs; assay type: in vivo; conditions: male, beagle, dog, plasma, sc, 12 mg/kg, beagle dogs, SC 12 mg/kg, 400 mg/mL solution Y (water, PEG 300), 1.00 h, Mean n = 3
Property Label: concentration at 1 h (nM)
Answer in nM, number only, no unit symbol.

[Q] What does the data say about its concentration at 1 h? Entry: CC(C)(C#Cc1ccc(-c2ccc(Cl)c3c(NS(C)(=O)=O)nn(CC(F)(F)F)c23)c([C@H](Cc2cc(F)cc(F)c2)NC(=O)Cn2nc(C(F)(F)F)c3c2C(F)(F)[C@@H]2C[C@H]32)n1)S(C)(=O)=O [compound of Formula (Ia)]
[A] 9.61
